- Assayed target: Clost Pep #3
- Assay name: Ultraviolet spectrometry peptide binding
- Set-up: species or system Clostridium
- Condition summary: estimated from inflection points of the curves, read-out: Binding Constants, Clost Pep #3
Endpoint: pKd
For clarity, pKd is expressed as the negative log10 of concentration in mol/L.

Prompt: Entry CASSIYLCSVEATRAD [TCR DIA 1] : reported pKd = ?
Response: 4.00
